Source: patent US12279521B2

# test_method_notes: Solubility in organic solvents via HPTLC (after 24 hours and 7 days)
# Type: physicochemical
# assay_setup: 25 °C, organic solvent or mixture, thermodynamic from solid; tetralin, 24 hours, room temperature; read-out: Solubility after 24 hours, Tetralin
Listing: solubility at 24 h of selected compounds

compound	solubility at 24 h
c1ccc(-c2cccc(-c3cc(-c4cccc(-c5ccccc5)c4)cc(C4(c5cc(-c6cccc(-c7ccccc7)c6)cc(-c6cccc(-c7ccccc7)c6)c5)c5ccccc5-c5ccc(-c6ccccc6)cc54)c3)c2)cc1 [Compound B-3, reference compound]	< 50 mg/mL
c1ccc(-c2cccc(-c3cc(-c4cccc(-c5ccccc5)c4)cc(C4(c5cc(-c6cccc(-c7ccccc7)c6)cc(-c6cccc(-c7ccccc7)c6)c5)c5ccccc5-c5ccccc54)c3)c2)cc1 [Compound B-1, reference compound]	> 50 mg/mL
c1ccc(-c2cc(-c3ccccc3)cc(-c3cccc(-c4cccc(C5(c6cccc(-c7cccc(-c8cc(-c9ccccc9)cc(-c9ccccc9)c8)c7)c6)c6ccccc6-c6ccccc65)c4)c3)c2)cc1 [Compound B-2, reference compound]	> 50 mg/mL
c1ccc(-c2cc(-c3ccccc3)cc(-c3cccc(-c4cccc(C5(c6cccc(-c7cccc(-c8cc(-c9ccccc9)cc(-c9ccccc9)c8)c7)c6)c6ccccc6-c6c(-c7cccc(-c8ccccc8)c7)cccc65)c4)c3)c2)cc1 [Compound M-0162]	> 50 mg/mL
Cc1cc(C)c(-c2cccc3c2-c2ccccc2C3(c2cc(-c3cc(-c4ccc(C(C)(C)C)cc4)cc(-c4ccc(C(C)(C)C)cc4)c3)cc(-c3cc(-c4ccc(C(C)(C)C)cc4)cc(-c4ccc(C(C)(C)C)cc4)c3)c2)c2cc(-c3cc(-c4ccc(C(C)(C)C)cc4)cc(-c4ccc(C(C)(C)C)cc4)c3)cc(-c3cc(-c4ccc(C(C)(C)C)cc4)cc(-c4ccc(C(C)(C)C)cc4)c3)c2)c(C)c1 [Compound M-0086]	> 50 mg/mL

* * *

# test_method_notes: Solubility in organic solvents via HPTLC (after 24 hours and 7 days)
# Format: physicochemical
# assay_setup: mesitylene, 7 days storage at room temperature
Solubility after 7 days, Mesitylene: recorded values
result_type: Solubility after 7 days, Mesitylene

mol	result_type	reported_measurement
c1ccc(-c2cccc(-c3cc(-c4cccc(-c5ccccc5)c4)cc(C4(c5cc(-c6cccc(-c7ccccc7)c6)cc(-c6cccc(-c7ccccc7)c6)c5)c5ccccc5-c5c(-c6ccccc6)cccc54)c3)c2)cc1	Solubility after 7 days, Mesitylene	>50 mg/mL
c1ccc(-c2cc(-c3ccccc3)cc(-c3cccc(-c4cccc(C5(c6cccc(-c7cccc(-c8cc(-c9ccccc9)cc(-c9ccccc9)c8)c7)c6)c6ccccc6-c6c(-c7ccccc7)cccc65)c4)c3)c2)cc1	Solubility after 7 days, Mesitylene	50 mg/mL
Cc1ccc2c(c1)-c1c(-c3cccc(-c4ccccc4)c3)cccc1C2(c1cccc(-c2cccc3c2-c2ccccc2C3(C)C)c1)c1cccc(-c2cccc3c2-c2ccccc2C3(C)C)c1	Solubility after 7 days, Mesitylene	<30 mg/mL
c1ccc(-c2cccc(-c3cc(-c4cccc(-c5ccccc5)c4)cc(C4(c5cc(-c6cccc(-c7ccccc7)c6)cc(-c6cccc(-c7ccccc7)c6)c5)c5ccccc5-c5c(-c6ccccc6-c6ccccc6)cccc54)c3)c2)cc1	Solubility after 7 days, Mesitylene	<50 mg/mL
c1ccc(-c2cc(-c3ccccc3)cc(-c3cccc(-c4cccc(C5(c6cccc(-c7cccc(-c8cc(-c9ccccc9)cc(-c9ccccc9)c8)c7)c6)c6cc7c(cc6-c6c5ccc5c6-c6ccccc6C56c5ccccc5-c5ccccc56)OCO7)c4)c3)c2)cc1	Solubility after 7 days, Mesitylene	<20 mg/mL
